# Substrate: O=CC(O)COP(=O)(O)O
# assay text: coupled alpha-glycerophosphate dehydrogenase assay, A340
# Assay type: biochemical, Synechocystis sp. PCC 6803
# run conditions: 0.1 M TEA pH 7.4, 10 mM EDTA, 0.2 mM NADH, G3P 0-5 mM, G3P to DHAP
# Text: coupled alpha-glycerophosphate dehydrogenase assay, A340 on SyTPI

protein: SyTPI (Synechocystis sp. PCC 6803 substr. Kazusa; C127A/C176S) (protein, full length, codon-optimised, E. coli BL21(DE3) delta-tpi; His tag cut by PreScission, extra Gly-Pro-His before Met1; homodimer 54 kDa) MRKIIIAGNWKMHKTQAEAQAFLQGFKPLIEDAAESREVVLCVPFTDLSGMSQQLHGGRVRLGAQNVHWEASGAYTGEISAAMLTEIGIHYVVIGHSERRQYFGETDETANLRVLAAQKAGLIPILAVGESKAQRDAGETEQVIVDQVKKGLVNVDQSNLVIAYEPIWAIGTGDTSAATEANRVIGLIREQLTNSQVTIQYGGSVNANNVDEIMAQPEIDGALVGGASLEPQSFARIVNFQP
kcat [s⁻¹]: 683
